Form field: Ki (one value per entry).
- system-under-test: recombinant human GSK3β (Homo sapiens)
- assay-comment: GSK3β Scintillation Proximity Assay (ATP competition)
- assay-setup: recombinant human GSK3β SPA; 1 μM ATP, 1 μM biotinylated peptide substrate; Ki calculated with Km of ATP 20 μM
- Protocol: Determination of ATP Competition in Scintillation Proximity GSK3β Assay. GSK3β Scintillation Proximity Assay. The competition experiments were carried out in duplicate with 10 different concentrations of the inhibitors in clear-bottom microtiter plates (Wallac, Finland). […] After 6 hours the radioactivity was determined in a liquid scintillation counter (1450 MicroBeta Trilux, Wallac). The inhibition curves were analysed by non-linear regression using GraphPad Prism, USA. […]

{"columns": ["molecule", "Ki, nM"],
 "data": [
  ["Cc1ncc(-c2nc(Nc3ccc(CNCCCN4CCCC4=O)nc3)ncc2F)n1C1CCOCC1", 230],
  ["Cc1ncc(-c2nc(NC3CCN(C(=O)OCc4ccccc4)CC3)ncc2F)n1C1CCOCC1", 31],
  ["Cc1ncc(-c2nc(Nc3ccc(CN4CCC(F)(F)CC4)nc3)ncc2F)n1C1CCOCC1", 42],
  ["Cc1ncc(-c2nc(Nc3ccc(CN4CCCC(CO)C4)nc3)ncc2F)n1C1CCOCC1 (centres unmarked)", 170],
  ["Cc1ncc(-c2nc(NC3CCCCC3)ncc2F)n1C1CCOCC1", 16],
  ["Cc1ncc(-c2nc(Nc3ccc(CN(CCC#N)CC4CCCO4)nc3)ncc2F)n1C1CCOCC1 (centres unmarked)", 75],
  ["Cc1ncc(-c2nc(Nc3ccc(CN4CCCOCC4)nc3)ncc2F)n1C1CCOCC1", 79],
  ["COC1CCN(Cc2ccc(Nc3ncc(F)c(-c4cnc(C)n4C4CCOCC4)n3)cn2)CC1", 150]
]}

----------
- system-under-test: recombinant human GSK3β (Homo sapiens, UniProt P49841)
- Sequence (P49841 whole entry): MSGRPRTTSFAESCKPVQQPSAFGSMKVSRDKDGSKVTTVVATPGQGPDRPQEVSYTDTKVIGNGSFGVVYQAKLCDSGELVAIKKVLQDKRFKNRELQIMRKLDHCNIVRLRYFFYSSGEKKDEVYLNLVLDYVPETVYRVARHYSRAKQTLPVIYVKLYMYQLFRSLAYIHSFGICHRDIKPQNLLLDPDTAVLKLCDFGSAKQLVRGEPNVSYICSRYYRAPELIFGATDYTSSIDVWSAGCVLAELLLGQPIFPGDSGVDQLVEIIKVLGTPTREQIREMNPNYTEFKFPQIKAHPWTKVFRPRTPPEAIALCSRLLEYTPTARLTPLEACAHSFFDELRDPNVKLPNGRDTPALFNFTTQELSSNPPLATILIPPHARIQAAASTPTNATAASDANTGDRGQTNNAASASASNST
- assay-comment: GSK3β Scintillation Proximity Assay (ATP competition)
- assay-setup: recombinant human GSK3β SPA; 1 μM ATP, 1 μM biotinylated peptide substrate; Ki calculated with Km of ATP 20 μM
Form field: Ki (one value per entry).

{"columns": ["structure-smiles", "Ki, nM"],
 "data": [
  ["CC(=O)N1CCCN(Cc2ccc(Nc3ncc(F)c(-c4cnc(C)n4C4CCOCC4)n3)cn2)CC1", 75],
  ["Cc1ncc(-c2nc(Nc3cncnc3)ncc2F)n1C1CCOCC1", 220],
  ["Cc1ncc(-c2nc(NC3CCN(C(=O)Cc4ccccc4)CC3)ncc2F)n1C1CCOCC1", 36],
  ["CC(=O)N1CCC(Nc2ncc(F)c(-c3cnc(C)n3C3CCOCC3)n2)CC1", 120]
]}

----------
- system-under-test: recombinant human GSK3β (Homo sapiens, UniProt P49841)
- Construct: purchased Dundee University, UK
- assay-comment: GSK3β Scintillation Proximity Assay (ATP competition)
- Type: biochemical
- assay-setup: recombinant human GSK3β SPA; 1 μM ATP, 1 μM biotinylated peptide substrate; Ki calculated with Km of ATP 20 μM
pKi: −log10 of the molar value.
Label FALSE if pKi falls below 7; label TRUE in every other case.

{"columns": ["molecule", "qualitative-label"],
 "data": [
  ["Cc1ncc(-c2nc(NC3CCN(C(=O)OC(C)(C)C)CC3)ncc2F)n1C1CCOCC1 [Example 33]", "FALSE"],
  ["Cc1ncc(-c2nc(NC3CCN(C(=O)c4ccccc4)CC3)ncc2F)n1C1CCOCC1 [Example 38]", "TRUE"],
  ["Cc1ncc(-c2nc(Nc3ccc(CN4CCCCC4)nc3)ncc2F)n1C1CCOCC1 [Example 12]", "FALSE"],
  ["CC(=O)c1cncc(Nc2ncc(F)c(-c3cnc(C)n3C3CCOCC3)n2)c1 [Example 2]", "TRUE"],
  ["Cc1ncc(-c2nc(Nc3ccc(CN4CCC4)nc3)ncc2F)n1C1CCOCC1 [Example 27]", "FALSE"],
  ["Cc1ncc(-c2nc(Nc3ccc(C(F)(F)F)cn3)ncc2F)n1C1CCOCC1 [Example 4]", "FALSE"],
  ["Cc1ccc(Nc2ncc(F)c(-c3cnc(C)n3C3CCOCC3)n2)cn1 [Example 5]", "TRUE"],
  ["Cc1ncc(-c2nc(Nc3ccc(CNCc4ccc(Cl)nc4)nc3)ncc2F)n1C1CCOCC1 [Example 20]", "TRUE"],
  ["Cc1ncc(-c2nc(Nc3cncc4ccccc34)ncc2F)n1C1CCOCC1 [Example 30]", "FALSE"],
  ["Cc1ncc(-c2nc(Nc3ccc(CN4CCCC4)nc3)ncc2F)n1C1CCOCC1 [Example 19]", "FALSE"],
  ["COc1ccnc(Nc2ncc(F)c(-c3cnc(C)n3C3CCOCC3)n2)c1 [Example 6]", "FALSE"],
  ["COc1cccc(Nc2ncc(F)c(-c3cnc(C)n3C3CCOCC3)n2)n1 [Example 3]", "FALSE"]
]}
